- measuredTarget: T1, complex of AurA-DN/TPX2^1-43 (UniProt O14965 122-403; Q9ULW0 1-43, D274N)
- T1 construct: TPX2, first 43 amino acids; Added as a complex in the NMR titration; source: mixed from the purified recombinant proteins m8 and m12
- T1 sequence (looked up) 1: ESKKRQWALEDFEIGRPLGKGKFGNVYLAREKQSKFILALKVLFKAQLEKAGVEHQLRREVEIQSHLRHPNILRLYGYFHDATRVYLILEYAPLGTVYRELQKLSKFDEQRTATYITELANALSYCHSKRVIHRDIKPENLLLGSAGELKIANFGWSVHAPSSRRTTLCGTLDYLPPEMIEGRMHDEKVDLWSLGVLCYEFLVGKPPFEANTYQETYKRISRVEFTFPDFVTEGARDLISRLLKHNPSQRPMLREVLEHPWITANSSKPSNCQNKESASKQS
- T1 sequence (looked up) 2: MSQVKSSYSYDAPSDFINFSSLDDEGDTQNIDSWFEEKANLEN
- assayNotes: NMR titration; 15N-labelled TACC3act (75 uM constant in titrations) with unlabelled AurA-DN or the AurA-DN/TPX2^1-43 complex at 0-225 uM; 1H-15N HSQC; 20 mM potassium phosphate pH 7.0, 50 mM NaCl, 1 mM DTT, 0.02% sodium azide, 5 mM ADP/MgCl2; chemical shift changes fit to Eq 1
- assayContext: both partners purified
valueKind: pKd
To interpret pKd, take it as minus log10 of a concentration measured in moles per litre.

What the record says about ELKEESFRDPAEVLGTGAEVDYLEQFGTSSFKESALRKQSLYLKF (domain or fragment, UniProt Q9Y6A5 519-563, looked up, also called ^15N-labelled TACC3act; source: recombinant, expressed from pETM6T1, purified (SEC); 15N- or 15N/13C-labelled for NMR) [TACC3act (human TACC3 residues 519–563)] : pKd is 5.96

The reported measurements were obtained from paper PMC4489650.
